Below, each of the molecules is paired with its reported pest or weed control at 25 ppm value.
- Tested on: Mycosphaerella graminicola; Anamorph: Septoria tritici; Bayer Code SEPTTR
- experiment description: Leaf blotch of wheat, foliar fungicide treatment, one day protectant (1DP) or three day curative (3DC)
- Format: in vivo, Septoria tritici on wheat plants (variety Yuma)
- experimental setup: Zymoseptoria tritici, 24 h, one day protectant (1DP), 25 ppm, rating of percent disease control, read-out: SETTTR 1DP 25 ppm

molecule	pest or weed control at 25 ppm
Cc1ccc(COc2ncc(F)c(N)n2)cc1F [Compound 232]	76 to 100%

*Q* Name the reported pest or weed control at 25 ppm value associated with the molecule CCC(C)/C(C)=N/Nc1nc(OCc2ccc(C)cc2)ncc1F (stereo not shown) [Compound 533]
*A* 51 to 75%

*Q* I would be grateful if you could share the reported pest or weed control at 25 ppm for COc1cccc(COc2ncc(F)c(N/N=C/c3ncc[nH]3)n2)c1 [Compound 532] .
*A* 26 to 50%

*Q* Returns the measured pest or weed control at 25 ppm for the input molecule. Input: Nc1nc(OCc2cnc(Cl)s2)ncc1F [Compound 429]
*A* 76 to 100%

*Q* Suppose we examine the molecule CN(C)/C=N/c1nc(OC(=O)OCc2ccccc2Cl)ncc1F [Compound 789] ; what pest or weed control at 25 ppm value has been reported?
*A* 76 to 100%

*Q* State the recorded pest or weed control at 25 ppm for this entry: CCOCNc1nc(OCc2ccn(C)n2)ncc1F [Compound 374]
*A* 51 to 75%

*Q* Return reported pest or weed control at 25 ppm; argument: CC[Si](CC)(CC)Nc1nc(OCc2cccc(F)c2)ncc1F [Compound 346]
*A* 76 to 100%

*Q* So what does the record say about pest or weed control at 25 ppm for CNc1nc(OCc2ccc(OC)cc2)ncc1F [Compound 339] ?
*A* 0 to 25%

*Q* Entry under review: C/C=C(C)/C=N/Nc1nc(OCc2cccc(OC)c2)ncc1F [Compound 285] . Reported pest or weed control at 25 ppm?
*A* 51 to 75%

*Q* // query pest or weed control at 25 ppm value for entry N#Cc1ccnc(COc2ncc(F)c(N)n2)c1 [Compound 522]
*A* 0 to 25%

----------
- Tested on: Mycosphaerella graminicola; Anamorph: Septoria tritici; Bayer Code SEPTTR
- experiment description: Leaf blotch of wheat, foliar fungicide treatment, one day protectant (1DP) or three day curative (3DC)
- Type: in vivo, Septoria tritici on wheat plants (variety Yuma)
- experimental setup: Zymoseptoria tritici, 24 h, one day protectant (1DP), 100 ppm, rating of percent disease control, read-out: SEPTTR 1DP 100 ppm
recorded endpoint: pest or weed control at 100 ppm

Below: 5 molecules and their reported pest or weed control at 100 ppm.
molecule	reported
O=[N+]([O-])c1ccccc1SNc1nc(OCc2c(F)cc(Br)cc2F)ncc1F	76 to 100%
Nc1nc(OCc2cccc3ccsc23)ncc1F	76 to 100%
ON(Cc1ccccc1)c1nc(OCc2ccc(F)cc2)ncc1F	76 to 100%
CN1CCCC1CCOc1ncc(F)c(N)n1 (stereo not shown)	76 to 100%
Nc1nc(OCc2cccc(F)c2)ncc1F	76 to 100%

*Q* Any idea what its pest or weed control at 100 ppm is? The molecule is Cc1c(COc2ncc(F)c(N)n2)cnn1C
*A* 76 to 100%

*Q* Consider the molecule CN(C)/C=N/c1nc(OC(=O)c2ccc(Cl)cc2Cl)ncc1F and give its measured pest or weed control at 100 ppm.
*A* 76 to 100%

*Q* Data request, read-out pest or weed control at 100 ppm, for Nc1nc(OCc2cccnc2)ncc1F
*A* 76 to 100%

*Q* Returns the measured pest or weed control at 100 ppm for the input molecule. Input: Cc1c(N)cccc1COc1ncc(F)c(N)n1
*A* 76 to 100%

*Q* pest or weed control at 100 ppm lookup needed for CCCNC(=O)N(C(=O)NCCC)c1nc(OCc2cccc(F)c2)ncc1F , thanks.
*A* 76 to 100%

Source listed as patent US9204653B2.
